Attribution: patent US20240116985A1

- methodDescription: CHI Log D procedure
- Format: physicochemical
- condition: pH 7.4, CHI Log D
Catalogue of chromatographic logD values
The response must contain the number and no unit.

molecule	chromatographic logD
CC(=O)N1CCC[C@]12CC=CCCCC1(CCCC=CCCCCCC[C@@](C)(C(=O)N[C@@H](Cc3ccccc3)C(=O)N[C@@H](Cc3c[nH]c4ccccc34)C(=O)N[C@@H](CCC(N)=O)C(N)=O)NC(=O)[C@H](C(C)C)NC(=O)[C@H](Cc3ccccc3F)NC(=O)[C@H](C)NC(=O)[C@H](C)NC(=O)[C@H](CC(=O)O)NC(=O)[C@H](CC(=O)O)NC1=O)NC(=O)[C@H](C)NC(=O)[C@H](CC(=O)O)NC2=O (some centres unmarked)	2.02
CC(=O)N1CCC[C@]12CC=CCCCC1(CCCC=CCCCOC(=O)N3CC[C@@](C(=O)N[C@@H](Cc4ccsc4)C(=O)N[C@@H](Cc4csc5ccccc45)C(=O)N[C@@H](CCC(N)=O)C(N)=O)(C3)NC(=O)[C@H](CC(C)C)NC(=O)[C@H](Cc3ccccc3)NC(=O)[C@H](C)NC(=O)[C@H](C)NC(=O)[C@H](Cc3ccccc3C(=O)O)NC(=O)[C@H](CC(=O)O)NC1=O)NC(=O)[C@H](CC(C)(C)C)NC(=O)[C@H](CC(=O)O)NC2=O (some centres unmarked)	2.48
CC[C@H](C)[C@@H]1NC(=O)[C@H](CNS(=O)(=O)C(F)(F)F)NC(=O)[C@]2(CC=CCCCC3(CCCC=CCCCCCC[C@@](C)(C(=O)N[C@@H](Cc4ccccc4)C(=O)N[C@@H](Cc4csc5ccccc45)C(=O)N[C@@H](CCC(N)=O)C(N)=O)NC(=O)[C@H](CCC(N)=O)NC(=O)[C@H](Cc4ccccc4)NC(=O)[C@H](C)NC(=O)[C@H](C)NC(=O)[C@H](CCC(=O)O)NC(=O)[C@H](CC(=O)O)NC3=O)NC1=O)CCCN2C(C)=O (some centres unmarked)	3.15
CC(=O)N1CCC[C@]12CC=CCCCC1(CCCC=CCCCOC(=O)N3CC[C@@](C(=O)N[C@@H](Cc4ccccc4Cl)C(=O)N[C@@H](Cc4csc5ccccc45)C(=O)N[C@@H](C)CO)(C3)NC(=O)[C@H](CC(N)=O)NC(=O)[C@H](Cc3ccccc3)NC(=O)[C@H](C)NC(=O)[C@H](C)NC(=O)[C@H](CC(=O)O)NC(=O)[C@H](CC(=O)O)NC1=O)NC(=O)[C@H](CC(C)(C)C)NC(=O)[C@H](CC(=O)O)NC2=O (some centres unmarked)	2.4

We now examine a further molecule.
Ask: Answer with the recorded chromatographic logD for the molecule listed here: CC(=O)N1CCC[C@]12CC=CCCCC1(CCCC=CCCCCCC[C@@](C)(C(=O)N[C@@H](Cc3ccccc3)C(=O)N[C@@H](Cc3csc4ccccc34)C(=O)N[C@@H](CCC(N)=O)C(N)=O)NC(=O)[C@H](CC(N)=O)NC(=O)[C@H](Cc3cccc(F)c3)NC(=O)[C@H](C)NC(=O)[C@H](C)NC(=O)[C@H](CCC(=O)O)NC(=O)[C@H](CC(=O)O)NC1=O)NC(=O)[C@H](C)NC(=O)[C@H](CC(=O)O)NC2=O (some centres unmarked)
Reply: 2.05

====

- targetDesc: full-length beta-Catenin (Uniprot ID P35222) (Homo sapiens)
- Construct: 10 nM full-length beta-Catenin (Uniprot ID P35222)
- Sequence (P35222 1-781): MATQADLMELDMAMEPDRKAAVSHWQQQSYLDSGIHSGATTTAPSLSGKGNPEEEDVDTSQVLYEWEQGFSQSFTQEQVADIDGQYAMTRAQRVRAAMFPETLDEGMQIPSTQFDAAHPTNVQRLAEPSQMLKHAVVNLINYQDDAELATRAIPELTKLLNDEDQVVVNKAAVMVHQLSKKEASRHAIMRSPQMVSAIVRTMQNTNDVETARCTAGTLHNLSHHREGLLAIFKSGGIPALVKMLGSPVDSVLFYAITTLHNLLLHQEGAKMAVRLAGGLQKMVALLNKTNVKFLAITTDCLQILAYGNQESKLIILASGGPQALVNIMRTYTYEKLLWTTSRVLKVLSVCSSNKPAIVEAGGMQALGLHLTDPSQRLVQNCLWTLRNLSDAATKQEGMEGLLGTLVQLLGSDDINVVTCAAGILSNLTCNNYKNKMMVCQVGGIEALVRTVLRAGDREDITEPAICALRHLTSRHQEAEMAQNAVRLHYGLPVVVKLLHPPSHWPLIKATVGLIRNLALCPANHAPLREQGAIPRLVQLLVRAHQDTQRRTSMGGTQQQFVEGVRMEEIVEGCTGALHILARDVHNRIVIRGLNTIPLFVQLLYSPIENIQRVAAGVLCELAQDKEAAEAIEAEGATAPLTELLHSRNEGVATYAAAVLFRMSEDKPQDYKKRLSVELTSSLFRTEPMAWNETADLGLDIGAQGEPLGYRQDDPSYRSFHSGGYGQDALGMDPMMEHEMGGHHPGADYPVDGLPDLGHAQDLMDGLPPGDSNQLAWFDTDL
- methodDescription: Fluorescence polarization IC50 (beta-catenin / 5FAM-TCF4 10-53 competition)
- Type: binding
- condition: read-out: beta-Catenin FP IC50
attributeMeasured: pIC50
When answering, recall that pIC50 equals minus log10 of the concentration in mol/L, and write that number alone.

As a guide, the following entries are already answered.
molecule	targetDesc	pIC50
CC(=O)N1CCC[C@]12CC=CCCCC1(CCCC=CCCCOC(=O)N3CC[C@@](C(=O)N[C@@H](Cc4ccccc4Cl)C(=O)N[C@@H](Cc4csc5ccccc45)C(=O)N[C@@H](CCC(N)=O)C(N)=O)(C3)NC(=O)[C@H](CO)NC(=O)[C@H](Cc3ccccc3)NC(=O)[C@H](C)NC(=O)[C@H](C)NC(=O)[C@H](CC(=O)O)NC(=O)[C@H](CC(=O)O)NC1=O)NC(=O)[C@H](Cc1ccc3ccccc3c1)NC(=O)[C@H](CC(=O)O)NC2=O (some centres unmarked) [I-1109]	full-length beta-Catenin (Uniprot ID P35222) (Homo sapiens)	7.62
CC(=O)N1CCC[C@]12CC=CCCCC1(CCCC=CCCCOC(=O)N3CC[C@@](C(=O)N[C@@H](Cc4ccsc4)C(=O)N[C@@H](Cc4csc5ccccc45)C(=O)N[C@@H](CCC(N)=O)C(N)=O)(C3)NC(=O)[C@H](CO)NC(=O)[C@H](Cc3ccccc3)NC(=O)[C@H](C)NC(=O)[C@H](C)NC(=O)[C@H](Cc3cccc(C(=O)O)c3)NC(=O)[C@H](CC(=O)O)NC1=O)NC(=O)[C@H](CC(C)(C)C)NC(=O)[C@H](CC(=O)O)NC2=O (some centres unmarked) [I-979]	full-length beta-Catenin (Uniprot ID P35222) (Homo sapiens)	6.62
CC(=O)N1CCC[C@]12CC=CCCCC1(CCCC=CCCCOC(=O)N3CC[C@@](C(=O)N[C@@H](Cc4ccsc4)C(=O)N[C@@H](Cc4csc5ccccc45)C(=O)N[C@@H](Cc4c[nH]cn4)C(N)=O)(C3)NC(=O)[C@H](CC(N)=O)NC(=O)[C@H](Cc3ccccc3)NC(=O)[C@H](C)NC(=O)[C@H](C)NC(=O)[C@H](CCCNC(N)=O)NC(=O)[C@H](CC(=O)O)NC1=O)NC(=O)[C@H](CC(C)(C)C)NC(=O)[C@H](CC(=O)O)NC2=O (some centres unmarked) [I-841]	full-length beta-Catenin (Uniprot ID P35222) (Homo sapiens)	7.92
CC(=O)N1CCC[C@]12CC=CCCCC1(CCCC=CCCCOC(=O)N3CC[C@@](C(=O)N[C@@H](Cc4ccsc4)C(=O)N[C@@H](Cc4csc5ccccc45)C(=O)N[C@@H](CCC(N)=O)C(N)=O)(C3)NC(=O)[C@H](CO)NC(=O)[C@H](Cc3ccccc3)NC(=O)[C@H](C)NC(=O)[C@H](C)NC(=O)[C@H](Cc3cccc(C(=O)O)c3)NC(=O)[C@H](CC(=O)O)NC1=O)NC(=O)[C@H](CC(C)(C)C)NC(=O)[C@H](CC(=O)O)NC2=O (some centres unmarked) [I-978]	full-length beta-Catenin (Uniprot ID P35222) (Homo sapiens)	6.95

Ask: Using the record for CC(=O)N1CCC[C@]12CC=CCCCC1(CCCC=CCCCOC(=O)N3CC[C@@](C(=O)N[C@@H](Cc4ccsc4)C(=O)N[C@@H](Cc4csc5ccccc45)C(=O)N[C@@H](CO)C(N)=O)(C3)NC(=O)[C@H](CCO)NC(=O)[C@H](Cc3ccccc3)NC(=O)[C@H](C)NC(=O)[C@H](C)NC(=O)[C@H](CN(CC(=O)O)CC(F)(F)F)NC(=O)[C@H](CC(=O)O)NC1=O)NC(=O)[C@H](CC(C)(C)C)NC(=O)[C@H](CC(=O)O)NC2=O (some centres unmarked) [I-958] , state its measured pIC50.
Reply: 6.22

====

- targetDesc: full-length beta-Catenin (Uniprot ID P35222) (Homo sapiens)
- Construct: 10 nM full-length beta-Catenin (Uniprot ID P35222)
- Sequence (P35222 1-781): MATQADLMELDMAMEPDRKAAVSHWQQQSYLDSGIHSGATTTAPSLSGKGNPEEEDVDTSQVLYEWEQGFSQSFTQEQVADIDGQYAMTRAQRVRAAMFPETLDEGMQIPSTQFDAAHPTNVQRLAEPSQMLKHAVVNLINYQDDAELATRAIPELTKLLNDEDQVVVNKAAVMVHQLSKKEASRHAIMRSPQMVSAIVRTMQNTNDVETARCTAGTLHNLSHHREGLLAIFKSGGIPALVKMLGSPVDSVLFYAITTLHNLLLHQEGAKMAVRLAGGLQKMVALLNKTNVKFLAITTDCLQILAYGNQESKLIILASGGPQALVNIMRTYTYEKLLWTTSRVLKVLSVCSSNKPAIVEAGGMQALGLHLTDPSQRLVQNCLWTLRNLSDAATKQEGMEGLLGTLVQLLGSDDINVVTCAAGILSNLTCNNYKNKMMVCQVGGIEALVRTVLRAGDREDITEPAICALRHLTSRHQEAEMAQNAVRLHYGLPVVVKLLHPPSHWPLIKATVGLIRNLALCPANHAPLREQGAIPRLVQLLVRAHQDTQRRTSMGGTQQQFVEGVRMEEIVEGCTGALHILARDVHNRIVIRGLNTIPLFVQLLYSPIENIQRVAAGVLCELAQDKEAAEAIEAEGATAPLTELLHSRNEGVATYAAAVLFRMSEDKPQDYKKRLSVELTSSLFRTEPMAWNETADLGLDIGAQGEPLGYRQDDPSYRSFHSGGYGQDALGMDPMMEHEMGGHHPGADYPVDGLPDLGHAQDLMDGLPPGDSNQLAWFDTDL
- methodDescription: Fluorescence polarization IC50 (beta-catenin / 5FAM-TCF4 10-53 competition)
- Assay type: binding
- condition: read-out: FP EC50
attributeMeasured: IC50 (nM)
Number in nM, nothing else.

compound	attributeMeasured	unitText	reading
CC[C@@H]1NC(=O)[C@H](CC(=O)O)NC(=O)[C@]2(CC=CCCCC3(CCCC=CCCCCCC[C@@](C)(C(=O)N[C@@H](Cc4ccccc4)C(=O)N[C@@H](Cc4csc5ccccc45)C(=O)N[C@@H](CCC(N)=O)C(N)=O)NC(=O)[C@H](CC(N)=O)NC(=O)[C@H](Cc4ccccc4)NC(=O)[C@H](C)NC(=O)[C@H](C)NC(=O)[C@H](CCC(=O)O)NC(=O)[C@H](CC(=O)O)NC3=O)NC1=O)CCCN2C(C)=O (some centres unmarked) [I-473]	IC50	nM	121

# input for lookup
Ask: Given CC[C@H](C)[C@@H]1NC(=O)[C@H](CC(=O)O)NC(=O)[C@]2(CC=CCCCC3(CCCC=CCCCCCC[C@@](C)(C(=O)N[C@@H](Cc4ccsc4)C(=O)N[C@@H](Cc4csc5ccccc45)C(=O)N[C@@H](CCC(N)=O)C(N)=O)NC(=O)[C@H](CC(N)=O)NC(=O)[C@H](Cc4ccccc4)NC(=O)[C@H](C)NC(=O)[C@H](C)NC(=O)[C@H](CN(CC(=O)O)CC(F)(F)F)NC(=O)[C@H](CC(=O)O)NC3=O)NC1=O)CCCN2C(C)=O (some centres unmarked) [I-700] , respond with its IC50.
Reply: 49
